Each entry below lists one item and its recorded Log DR against h-SCP, cAMP value.
MEASUREMENT TARGET: T1, human CRH receptor type 2 (human, UniProt Q13324 1-411)
T1 sequence (looked up): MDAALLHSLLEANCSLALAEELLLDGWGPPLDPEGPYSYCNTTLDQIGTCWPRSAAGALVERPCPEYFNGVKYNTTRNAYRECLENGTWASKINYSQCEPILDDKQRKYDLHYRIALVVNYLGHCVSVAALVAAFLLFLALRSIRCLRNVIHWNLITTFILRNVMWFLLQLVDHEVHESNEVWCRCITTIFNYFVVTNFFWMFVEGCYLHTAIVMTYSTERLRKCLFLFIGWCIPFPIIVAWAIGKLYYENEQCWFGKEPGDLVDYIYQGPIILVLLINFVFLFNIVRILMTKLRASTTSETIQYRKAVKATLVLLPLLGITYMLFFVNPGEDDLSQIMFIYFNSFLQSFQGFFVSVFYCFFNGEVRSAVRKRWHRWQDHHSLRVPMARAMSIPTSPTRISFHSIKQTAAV
ASSAY NOTES: cell-based or functional assay

Some binders with recorded Log DR against h-SCP, cAMP:
INSERT INTO measurements (binder, reported_result) VALUES
  ('TKFTLSLDVPTNIMNLLFNIAKAKNLRAQAAANACLMAQI (NES-PEG (about 20 kDa) on Cys 35; C-terminal amide) [Pegylated Cys-variant CRHR2 peptide agonist (NES linker, PEG about 20 kDa), SEQ ID NO: 89]', '0.98 log10 ratio'),
  ('TKFTLSLDCPTNIMNLLFNIAKAKNLRAQAAANAHLMAQI (NES-PEG (about 20 kDa) on Cys 9; C-terminal amide) [Pegylated Cys-variant CRHR2 peptide agonist (NES linker, PEG about 20 kDa), SEQ ID NO: 63]', '~2.12 log10 ratio'),
  ('TKFCLSLDVPTNIMNLLFNIAKAKNLRAQAAANAHLMAQI (NES-PEG (about 20 kDa) on Cys 4; C-terminal amide) [Pegylated Cys-variant CRHR2 peptide agonist (NES linker, PEG about 20 kDa), SEQ ID NO: 58]', '~2.4 log10 ratio');

Exercise: Need Log DR against h-SCP, cAMP, item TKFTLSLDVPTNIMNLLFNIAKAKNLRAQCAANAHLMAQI (NES-PEG (about 20 kDa) on Cys 30; C-terminal amide) [Pegylated Cys-variant CRHR2 peptide agonist (NES linker, PEG about 20 kDa), SEQ ID NO: 84]
Key: ~2.84 log10 ratio

Exercise: Reported Log DR against h-SCP, cAMP for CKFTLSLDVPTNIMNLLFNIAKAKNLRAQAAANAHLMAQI (NES-PEG (about 20 kDa) on Cys 1; C-terminal amide) [Pegylated Cys-variant CRHR2 peptide agonist (NES linker, PEG about 20 kDa), SEQ ID NO: 55] : what is it?
Key: ~1.61 log10 ratio

meta.source: patent US20100130424A1
